# system_under_test: human GlyT1c (Homo sapiens (Human))
# Sequence (P48067 whole entry): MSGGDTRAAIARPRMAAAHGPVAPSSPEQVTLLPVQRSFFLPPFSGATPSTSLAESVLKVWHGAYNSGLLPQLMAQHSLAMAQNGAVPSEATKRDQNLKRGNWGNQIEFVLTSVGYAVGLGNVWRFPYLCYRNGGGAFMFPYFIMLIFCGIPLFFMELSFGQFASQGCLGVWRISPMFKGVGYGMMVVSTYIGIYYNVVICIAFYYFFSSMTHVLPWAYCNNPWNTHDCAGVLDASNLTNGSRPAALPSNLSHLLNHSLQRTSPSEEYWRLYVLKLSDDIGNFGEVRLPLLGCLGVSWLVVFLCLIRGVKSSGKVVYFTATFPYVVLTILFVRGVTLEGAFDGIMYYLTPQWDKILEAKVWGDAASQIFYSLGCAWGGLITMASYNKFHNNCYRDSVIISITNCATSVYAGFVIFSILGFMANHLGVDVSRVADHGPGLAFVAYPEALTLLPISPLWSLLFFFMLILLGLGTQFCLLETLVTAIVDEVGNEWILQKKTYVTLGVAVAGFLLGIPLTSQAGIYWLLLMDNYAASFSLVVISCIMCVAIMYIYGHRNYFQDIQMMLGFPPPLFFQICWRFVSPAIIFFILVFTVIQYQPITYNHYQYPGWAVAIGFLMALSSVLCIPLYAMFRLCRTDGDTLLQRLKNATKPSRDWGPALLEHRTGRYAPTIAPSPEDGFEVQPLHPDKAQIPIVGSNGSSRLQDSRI
# assay: [3H]-Glycine uptake into recombinant CHO cells expressing human GlyT1
# Assay type: cell-based
Structures can show the parent of a compound that is named as a salt.
property: IC50

Example cases with answers are listed next.
>>> result("CCS(=O)(=O)CCCOc1ccc2c(c1)C(Cc1cccc(Cl)c1)C(N)CC2 (stereo not drawn) [Example 84, hydrochloride]")
"≤ 10000 nM"
>>> result("CCCS(=O)(=O)NCCOc1ccc2c(c1)C(Cc1cccc(Cl)c1)C(N)CC2 (stereo not drawn) [Example 55, hydrochloride]")
"≤ 100 nM"
>>> result("CCCS(=O)(=O)NCCOc1ccc2c(c1)C(Cc1ccc(Cl)c(Cl)c1)C(N)CC2 (stereo not drawn) [Example 8, hydrochloride]")
"≤ 100 nM"
>>> result("CCn1cc(S(=O)(=O)NCCOc2ccc3c(c2)C(Cc2cccc(Cl)c2)C(N)CC3)cn1 (stereo not drawn) [Example 66, hydrochloride]")
"≤ 1000 nM"
>>> result("Cn1cnc(S(=O)(=O)NCCOc2ccc3c(c2)C(Cc2ccc(Cl)c(Cl)c2)C(N)CC3)c1 (stereo not drawn) [Example 3, hydrochloride]")
"≤ 10 nM"
>>> result("Cc1csc(S(=O)(=O)NCCOc2ccc3c(c2)C(Cc2ccc(Cl)c(Cl)c2)C(N)CC3)c1 (stereo not drawn) [Example 24, hydrochloride]")
"≤ 10000 nM"
>>> result("NC1CCc2ccc(OCCNS(=O)(=O)c3ccccc3)cc2C1Cc1ccc(Cl)c(Cl)c1 (stereo not drawn) [Example 16, hydrochloride]")
"≤ 10000 nM"
>>> result("CS(=O)(=O)NCCOc1ccc2c(c1)C(Cc1ccc(Cl)c(Cl)c1)C(N)CC2 (stereo not drawn) [Example 15, hydrochloride]")
"≤ 1000 nM"

Next compound, IC50 to be filled in.
I'm curious: which IC50 was measured for CCS(=O)(=O)NCCOc1ccc2c(c1)C(Cc1cccc(Cl)c1)C(N)CC2 (stereo not drawn) [Example 70, hydrochloride] tested on human GlyT1c (Homo sapiens (Human))?
≤ 1000 nM

----------
# system_under_test: human GlyT1c transporter (Homo sapiens (Human), UniProt P48067)
# Sequence (P48067 whole entry): as above
# assay: Radioligand binding assay using recombinant CHO cell membranes expressing human GlyT1
# details: human GlyT1c-expressing CHO cell membranes; read-out: radioligand binding Kiapp
Counter-ions that a name gives are not always drawn.
property: Ki

Example cases with answers are listed next.
>>> result("CCCS(=O)(=O)NCCCc1ccc2c(c1)C(Cc1ccc(F)cc1)C(NCC)CC2 (stereo not shown) [Example 220, hydrochloride]")
"≤ 1000 nM"
>>> result("CN(CCOc1ccc2c(c1)C(Cc1ccccc1)C(N1CCC1)CC2)S(=O)(=O)c1cn(C)cn1 (stereo not shown)")
"≤ 100 nM"
>>> result("CC(=O)NC1CCc2ccc(CNS(=O)(=O)c3cn(C)cn3)cc2C1Cc1ccc(F)cc1 (stereo not shown)")
"≤ 10000 nM"

Next compound, Ki to be filled in.
Which Ki reading was recorded for the compound Cn1cnc(S(=O)(=O)NCCOc2ccc3c(c2)C(Cc2cccc(C(F)(F)F)c2)C(N)CC3)c1 (stereo not shown) [Example 165, hydrochloride] ?
≤ 10 nM

----------
# system_under_test: human GlyT1c transporter (Homo sapiens (Human), UniProt P48067)
# assay: Radioligand binding assay using recombinant CHO cell membranes expressing human GlyT1
# details: human GlyT1c-expressing CHO cell membranes; read-out: radioligand binding Kiapp
pKi: −log10 of the molar value. Counter-ions that a name gives are not always drawn.
property: pKi

>>> result("Cc1ncc(S(=O)(=O)NCCOc2ccc3c(c2)C(Cc2cccc(Cl)c2)C(N)CC3)[nH]1 (stereo not shown)")
"≥ 6.00"
>>> result("CNC1CCc2ccc(OCCNS(=O)(=O)c3ccn(C)c3)cc2C1Cc1cc(F)cc(F)c1 (single isomer, unassigned; enantiomer 2) [Example 242, hydrochloride]")
"≥ 8.00"
>>> result("CCCS(=O)(=O)NCCCc1ccc2c(c1)C(Cc1ccccc1)C(N1CCCC1)CC2 (stereo not shown) [Example 265, hydrochloride]")
"≥ 6.00"
>>> result("CC(=O)NC1CCc2ccc(CCCNS(=O)(=O)CC3CC3)cc2C1Cc1ccccc1 (stereo not shown)")
"≥ 5.00"
>>> result("NC1CCc2ccc(OCCNS(=O)(=O)CC3CC3)cc2C1Cc1ccccc1 (stereo not shown) [Example 121, hydrochloride]")
"≥ 8.00"
>>> result("CN(CCOc1ccc2c(c1)C(Cc1cccc(Cl)c1)C(N)CC2)S(=O)(=O)CC1CC1 (stereo not shown)")
"≥ 8.00"

Next compound, pKi to be filled in.
Which pKi reading was recorded for the compound CCOC(=O)NC1CCc2ccc(OCCNS(=O)(=O)c3cccs3)cc2C1Cc1cccc(Cl)c1 (stereo not shown) ?
≥ 6.00

----------
Hi there, I'd appreciate the recorded Ki for every entry that follows.
# system_under_test: human GlyT1c transporter (Homo sapiens (Human), UniProt P48067)
# assay: Radioligand binding assay using recombinant CHO cell membranes expressing human GlyT1
# details: read-out: radioligand binding Kiapp
Structures can show the parent of a compound that is named as a salt.

Example cases with answers are listed next.
>>> result("Cc1csc(S(=O)(=O)NCCOc2ccc3c(c2)C(Cc2ccc(Cl)c(Cl)c2)C(N)CC3)c1 (stereo not drawn) [Example 24, hydrochloride]")
"≤ 100 nM"
>>> result("CCS(=O)(=O)NCCOc1ccc2c(c1)C(Cc1cccc(Cl)c1)C(N)CC2 (stereo not drawn) [Example 70, hydrochloride]")
"≤ 100 nM"

Next molecule, Ki to be filled in.
Which Ki reading was recorded for the molecule CCCS(=O)(=O)NCCOc1ccc2c(c1)C(Cc1cccc(Cl)c1)C(N)CC2 (stereo not drawn) [Example 55, hydrochloride] ?
≤ 10 nM

----------
# system_under_test: human GlyT1c transporter (Homo sapiens (Human))
# assay: Radioligand binding assay using recombinant CHO cell membranes expressing human GlyT1
# details: human GlyT1c-expressing CHO cell membranes; read-out: radioligand binding Kiapp
Counter-ions that a name gives are not always drawn.
Hi there, I'd appreciate the recorded Ki for every entry that follows.

Example cases with answers are listed next.
>>> result("Cn1cnc(S(=O)(=O)NCCOc2ccc3c(c2)C(Cc2ccc(Cl)c(Cl)c2)C(NC(=O)C(F)(F)F)CC3)c1 (centres unmarked) [Example 18]")
"≤ 10 nM"
>>> result("NC1CCc2ccc(OCCNC(=O)CC3CC3)cc2C1Cc1ccc(Cl)c(Cl)c1 (centres unmarked) [Example 122, hydrochloride]")
"≤ 10000 nM"
>>> result("CCCS(=O)(=O)N(C)Cc1ccc2c(c1)[C@H](Cc1ccccc1)[C@H](N)CC2 (relative stereo) [Example 45, hydrochloride]")
"≤ 100 nM"
>>> result("CCNC1CCc2ccc(OCCNS(=O)(=O)c3cn(C)cn3)cc2C1Cc1ccc(Cl)c(Cl)c1 (centres unmarked) [Example 23]")
"≤ 10000 nM"
>>> result("CCCS(=O)(=O)NCCCc1ccc2c(c1)C(Cc1ccc(F)c(F)c1)C(NCC)CC2 (centres unmarked) [Example 225, trifluoroacetate]")
"≤ 100 nM"
>>> result("Cn1cnc(S(=O)(=O)NCCOc2ccc3c(c2)C(Cc2cccc(Cl)c2)C(N)CC3)c1 (centres unmarked) [Example 48, hydrochloride]")
"≤ 10 nM"
>>> result("O=S(=O)(CC1CC1)NCCOc1ccc2c(c1)C(Cc1cccc(F)c1)C(N1CCCC1)CC2 (centres unmarked) [Example 138, hydrochloride]")
"≤ 10 nM"
>>> result("CCCS(=O)(=O)NCCCc1ccc2c(c1)C(Cc1cccc(Cl)c1)C(N1CCCC1)CC2 (centres unmarked) [Example 264, hydrochloride]")
"≤ 1000 nM"
>>> result("CNC1CCc2ccc(OCCNS(=O)(=O)c3cnn(C)c3)cc2C1Cc1ccccc1Cl (centres unmarked) [Example 302, hydrochloride]")
"≤ 100 nM"
>>> result("CNC1CCc2ccc(OCCNS(=O)(=O)CC3CC3)cc2C1Cc1cc(F)cc(F)c1 (single isomer, unassigned; enantiomer 2) [Example 244, hydrochloride]")
"≤ 10 nM"

Dear colleague, could you please provide Ki for the molecules listed below?
1. CCCS(=O)(=O)N(CCOc1ccc2c(c1)C(Cc1cccc(Cl)c1)C(N)CC2)C1CC1 (centres unmarked) [Example 281, hydrochloride]
2. CCCS(=O)(=O)NCCOc1ccc2c(c1)C(Cc1ccc(Cl)c(Cl)c1)C(N(C)C)CC2 (centres unmarked) [Example 6]
3. CCOC(=O)NC1CCc2ccc(C#N)cc2C1Cc1ccc(Cl)c(Cl)c1 (centres unmarked) [Example 32]
4. Cn1cnc(S(=O)(=O)NCCOc2ccc3c(c2)C(Cc2cc(F)cc(Cl)c2)C(N2CCC2)CC3)c1 (centres unmarked) [Example 160]

["≤ 100 nM", "≤ 100 nM", "≤ 10000 nM", "≤ 10 nM"]

----------
Hi there, I'd appreciate the recorded Ki for every entry that follows.
# system_under_test: human GlyT1c transporter (Homo sapiens (Human), UniProt P48067)
# assay: Radioligand binding assay using recombinant CHO cell membranes expressing human GlyT1
# details: human GlyT1c-expressing CHO cell membranes; read-out: radioligand binding Kiapp
Where a name gives a salt, the structure may show the parent alone.

>>> result("NC1CCc2ccc(CCCNS(=O)(=O)CC3CC3)cc2C1Cc1ccc(Cl)cc1 (stereo not shown) [Example 202, hydrochloride]")
"≤ 100 nM"
>>> result("CCCS(=O)(=O)NCCCc1ccc2c(c1)C(Cc1ccc(Cl)c(Cl)c1)C(N)CC2 (stereo not shown) [Example 203, hydrochloride]")
"≤ 10 nM"

Dear colleague, could you please provide Ki for the compounds listed below?
1. CNC1CCc2ccc(OCCNS(=O)(=O)CC3CC3)cc2C1Cc1cc(F)cc(F)c1 (single isomer, unassigned; enantiomer 1) [Example 245, hydrochloride]
2. O=S(=O)(CC1CC1)NCCOc1ccc2c(c1)C(Cc1cccc(Cl)c1)C(N1CCC1)CC2 (stereo not shown) [Example 320]
3. NC1CCc2ccc(OCCNS(=O)(=O)CC3CC3)cc2C1Cc1ccc(Cl)c(Cl)c1 (stereo not shown) [Example 95, hydrochloride]
4. CCCS(=O)(=O)NCCCc1ccc2c(c1)C(Cc1ccccc1)C(NC(C)=O)CC2 (stereo not shown) [Example 217]
5. NC1CCc2ccc(OCCNS(=O)(=O)c3ccc(Cl)s3)cc2C1Cc1cccc(Cl)c1 (stereo not shown) [Example 59]

≤ 1000 nM
≤ 100 nM
≤ 10 nM
≤ 10000 nM
≤ 1000 nM
